assay.target: human IDO1/HEK293 cells (Homo sapiens, UniProt P14902)
Sequence (P14902 whole entry): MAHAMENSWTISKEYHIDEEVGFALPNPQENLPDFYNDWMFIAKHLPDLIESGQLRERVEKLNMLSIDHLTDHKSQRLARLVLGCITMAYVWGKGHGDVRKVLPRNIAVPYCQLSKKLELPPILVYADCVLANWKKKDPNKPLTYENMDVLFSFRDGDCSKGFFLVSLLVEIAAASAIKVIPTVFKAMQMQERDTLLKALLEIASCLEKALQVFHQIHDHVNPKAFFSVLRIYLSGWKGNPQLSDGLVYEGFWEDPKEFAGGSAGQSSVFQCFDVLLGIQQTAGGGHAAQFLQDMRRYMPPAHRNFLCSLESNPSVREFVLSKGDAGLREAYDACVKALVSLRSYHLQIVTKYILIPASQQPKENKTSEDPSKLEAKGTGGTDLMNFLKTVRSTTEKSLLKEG
assay.procedure: HEK Human IDO-1 cell-based IDO inhibition assay (kynurenine production)
recorded.conditions: HEK293 cells stably expressing human IDO1, 20 hours incubation, absorbance at 490 nm; read-out: HEK Human IDO-1 Bio Activity (IDO IC50)
pIC50: −log10 of the molar value.
measure: pIC50

Study these solved cases before continuing.
C[C@@H](NC(=O)c1ccc(C2(C)CC2)cc1)[C@H]1CC[C@@H](c2ccnc3ccc(F)cc32)CC1    > 7.30
C[C@@H](NC(=O)c1ccc(-c2ncnn2C)cc1)[C@H]1CC[C@@H](c2ccnc3ccc(F)cc32)CC1    > 6.60
C[C@@H](NC(=O)c1ccc(C(F)(F)F)cc1)[C@H]1CC[C@@H](c2ccnc3ccc(F)cc32)CC1    > 7.30

Turning now to a further compound:
Sample CC[C@H](NC(=O)c1ccc(Cl)cc1)[C@H]1CC[C@@H](c2cnc3ccccc3c2)CC1 (single isomer, unassigned) [Example 203b] — what was its pIC50?
> 6.60
